Target Entity: Recombinant TDO (Homo sapiens, UniProt P48775)
Construct: His tag (C); made in house; host or cells: E. coli
Sequence (P48775 whole entry): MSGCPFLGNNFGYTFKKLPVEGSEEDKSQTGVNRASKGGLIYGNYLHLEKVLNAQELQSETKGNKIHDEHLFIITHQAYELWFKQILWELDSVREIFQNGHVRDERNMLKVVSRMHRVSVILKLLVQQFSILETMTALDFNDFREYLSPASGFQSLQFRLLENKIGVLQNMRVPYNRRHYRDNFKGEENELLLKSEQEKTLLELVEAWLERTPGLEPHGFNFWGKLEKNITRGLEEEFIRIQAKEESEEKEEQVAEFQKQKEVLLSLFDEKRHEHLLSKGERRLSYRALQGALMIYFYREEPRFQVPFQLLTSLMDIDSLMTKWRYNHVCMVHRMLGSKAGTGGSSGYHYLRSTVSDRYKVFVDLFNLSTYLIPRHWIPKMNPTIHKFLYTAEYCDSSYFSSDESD
Assay Details: TDO enzymatic assay
Assay type: biochemical
Details: Table 1, 5-substituted imidazo[1,5-a]pyridines; 100 nM TDO, 0.5 mM L-tryptophan; read-out: Enzyme IC50 (nM) TDO
Readout Label: IC50 (nM)
Give a bare numeral; the unit nM is implied.

# Molecule, IC50 [nM]
records = [
    ("OC(c1c(Cl)c(Cl)cc2cncn12)C1CCCCC1 (stereo not drawn) [Example A143]", 270),
    ("OC(CC1CCCCC1)c1cc(Cl)cc2cncn12 (stereo not drawn) [Example A102]", 300),
    ("OC(CC1CCCCC1)c1cc(Cl)cc2cncn12 (single isomer, unassigned) [Example A102a]", 73),
    ("OC(CC1CCCCC1)c1c(I)ccc2cncn12 (single isomer, unassigned) [Example A124a]", 8800),
    ("OC(CC1CCCCC1)c1c(Cl)ccc2cncn12 (single isomer, unassigned) [Example A117a]", 4100),
]

Prompt: Give recorded IC50 with Recombinant TDO (Homo sapiens, UniProt P48775) for the following molecule: OC(c1cc(C(F)(F)F)cc2cncn12)C1CCCCC1 (single isomer, unassigned) [Example A109b]
Response: 1200

Prompt: Same for OC(c1cccc2cncn12)C1CCCCCC1 (stereo not drawn)
Response: 260

Prompt: Same for OC(c1cc(C(F)(F)F)cc2cncn12)C1CCCCC1 (stereo not drawn) [Example A109]
Response: 110

Prompt: Same for C=C(C)c1ccc2cncn2c1C(O)C1CCCCC1 (stereo not drawn)
Response: 3300

* * *

Target Entity: cellular IDO1 in HeLa cells (Homo sapiens, UniProt P14902)
Construct: endogenous in cells; host or cells: HeLa cells (American Type Tissue Culture Collection), induced with human recombinant IFN-γ
Sequence (P14902 whole entry): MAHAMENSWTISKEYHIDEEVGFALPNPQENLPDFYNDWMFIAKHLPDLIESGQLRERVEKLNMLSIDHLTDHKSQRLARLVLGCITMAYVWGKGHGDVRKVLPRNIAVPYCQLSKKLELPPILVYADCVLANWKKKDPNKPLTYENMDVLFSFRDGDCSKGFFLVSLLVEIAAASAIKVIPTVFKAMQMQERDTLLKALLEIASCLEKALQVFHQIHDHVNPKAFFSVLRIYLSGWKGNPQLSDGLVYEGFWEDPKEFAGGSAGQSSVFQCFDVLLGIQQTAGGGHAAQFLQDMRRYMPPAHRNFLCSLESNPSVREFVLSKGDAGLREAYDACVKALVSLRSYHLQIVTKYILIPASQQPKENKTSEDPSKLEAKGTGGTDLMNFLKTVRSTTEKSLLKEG
Assay Details: HeLa cell-based IDO1 Kyn (kynurenine) production assay
Details: Table 2, 8-substituted imidazo[1,5-a]pyridines, IFN-γ 100 ng/mL, 48 hours
pEC50: −log10 of the molar value.
1.0 means recorded pEC50 is 6 or above; 0.0 means it is below 6.

Please review the following examples before continuing.
# Molecule, Class Name
rows = [
    ("OC(c1c(C2CC2)ccn2cncc12)C1CCC(c2ccccc2)CC1 (mixture of isomers) [Example B143]", 1.0),
    ("NS(=O)(=O)N1CCCC(C(O)c2c(C3CC3)ccn3cncc23)C1 (single isomer, unassigned) [Example B135a]", 0.0),
    ("O[C@H](c1c(C2CC2)ccn2cncc12)[C@H]1C[C@H]2CC[C@@H]1C2 [Example B122a]", 1.0),
]

Prompt: Please indicate if the recorded pEC50 for OC(c1c(C2CCC2)ccn2cncc12)C1CCCCC1 (centres unmarked) meets or exceeds 6.
Response: 0.0

Prompt: Same for O[C@@H](c1c(C2CC2)ccn2cncc12)C1CCCCC1 (single isomer, unassigned) [Example B107b]
Response: 0.0

* * *

Items are presented alongside their recorded IC50.
Target Entity: Recombinant IDO1 (Homo sapiens, UniProt P14902)
Construct: His tag (N); made in house; host or cells: E. coli
Assay Details: IDO1 enzymatic assay
Type: biochemical
Details: Table 1, 5-substituted imidazo[1,5-a]pyridines; 50 nM IDO1, 1.3 mM D-tryptophan; read-out: Enzyme IC50 (nM) IDO1

Worked cases, answers included:
# Molecule, Target Entity, Meas Value
rows = [
    ("CC(C)(C)OC(=O)N1CCC(C(O)c2cccc3cncn23)CC1 (stereo not drawn) [Example A012]", "Recombinant IDO1 (Homo sapiens, UniProt P14902)", "41000 nM"),
    ("OC(CC1CCCCC1)c1c(Cl)c(Cl)cc2cncn12 (single isomer, unassigned) [Example A144a]", "Recombinant IDO1 (Homo sapiens, UniProt P14902)", "> 100000 nM"),
    ("O=C(NC1CC1)c1cccc(C(O)c2c(C3CC3)ccc3cncn23)c1 (stereo not drawn) [Example A160]", "Recombinant IDO1 (Homo sapiens, UniProt P14902)", "81 nM"),
    ("OC(c1cc(Cl)cc2cncn12)C1CCCCC1 (stereo not drawn) [Example A101]", "Recombinant IDO1 (Homo sapiens, UniProt P14902)", "29 nM"),
    ("OC(c1cc(Cl)c(Cl)c2cncn12)C1CCCCC1 (stereo not drawn) [Example A146]", "Recombinant IDO1 (Homo sapiens, UniProt P14902)", "28 nM"),
    ("OC(CC1CCCCC1)c1ccc(Cl)c2cncn12 (stereo not drawn) [Example A025]", "Recombinant IDO1 (Homo sapiens, UniProt P14902)", "2500 nM"),
    ("OC(c1cccc2cncn12)C1CCC1 (stereo not drawn) [Example A018]", "Recombinant IDO1 (Homo sapiens, UniProt P14902)", "1800 nM"),
    ("CC(O)(c1cccc2cncn12)C1CCCCC1 (stereo not drawn) [Example A016]", "Recombinant IDO1 (Homo sapiens, UniProt P14902)", "23000 nM"),
]

Prompt: Give the measured IC50 of OC(CC1CCCCC1)c1cc(C(F)(F)F)cc2cncn12 (single isomer, unassigned) [Example A114a] .
Response: 890 nM

* * *

Target Entity: Recombinant IDO1 (Homo sapiens, UniProt P14902)
Construct: His tag (N); made in house; host or cells: E. coli
Assay Details: IDO1 enzymatic assay
Type: biochemical
Details: Table 1, 5-substituted imidazo[1,5-a]pyridines; 50 nM IDO1, 1.3 mM D-tryptophan; read-out: Enzyme IC50 (nM) IDO1
Readout Label: IC50

# Molecule, IC50
rows = [
    ("OC(CC1CCCCC1)c1c(I)ccc2cncn12 (stereo not drawn) [Example A124]", "19 nM"),
]

Prompt: Give the measured IC50 of OC(c1c(Cl)c(C(F)(F)F)cc2cncn12)C1CCCCC1 (stereo not drawn) [Example A155] .
Response: 1000 nM

Prompt: Same for OC(CC1CCCCC1)c1c(Br)ccc2cncn12 (single isomer, unassigned) [Example A119a]
Response: 14 nM

Prompt: Same for OC(c1c(I)ccc2cncn12)C1CCCCC1 (single isomer, unassigned) [Example A125a]
Response: 15 nM

Prompt: Same for OC(c1cc(Cl)cc2cncn12)C1CCCC1 (stereo not drawn) [Example A103]
Response: 22 nM

Prompt: Same for OC(c1cccc2cncn12)C1CC1 (stereo not drawn) [Example A003]
Response: 3800 nM

Prompt: Same for OC(c1cccc2cncn12)C1CCOCC1 (stereo not drawn) [Example A010]
Response: 3100 nM

Prompt: Same for OC(c1c(C2CC2)ccc2cncn12)C1CCCCC1 (single isomer, unassigned) [Example A126a]
Response: 36 nM

Prompt: Same for O[C@@H](c1c(C2CC2)ccc2cncn12)C1CC2CCC1C2 (stereo partly drawn) [Example A162b]
Response: 1600 nM

* * *

Target Entity: cellular IDO1 in HeLa cells (Homo sapiens, UniProt P14902)
Construct: endogenous in cells; host or cells: HeLa cells (American Type Tissue Culture Collection), induced with human recombinant IFN-γ
Assay Details: HeLa cell-based IDO1 Kyn (kynurenine) production assay
Details: Table 2, 8-substituted imidazo[1,5-a]pyridines, IFN-γ 100 ng/mL, 48 hours
Assign labels as follows, please: yes (1) for EC50 below 400 nM; no (0) for EC50 equal to or exceeding 400 nM.

Please review the following examples before continuing.
# Molecule, Class Name
measured = [
    ("OC(c1c(C2CC2)ccn2cncc12)[C@H]1CC[C@H](O)CC1 (single isomer, unassigned) [Example B119a]", "no (0)"),
    ("CCOC(COCC1(C(O)c2c(C3CC3)ccn3cncc23)CCCCC1)OCC (stereo not drawn)", "no (0)"),
    ("OC(c1c(C2CC2)ccn2cncc12)C1CC2CCC1CC2 (stereo not drawn)", "yes (1)"),
    ("OCC1(C(O)c2c(C3CC3)ccn3cncc23)CCCCC1 (stereo not drawn)", "yes (1)"),
    ("OC(CC1CCCCC1)c1c([C@H]2C[C@H]2F)ccn2cncc12 (relative stereo) [Example B127a]", "no (0)"),
]

Prompt: Below 400 nM on EC50? Entry O=C(O)C1CCCC(C(O)c2c(C3CC3)ccn3cncc23)C1 (stereo not drawn)
Response: no (0)

Prompt: Same for NS(=O)(=O)N1CCCC(C(O)c2c(C3CC3)ccn3cncc23)C1 (single isomer, unassigned) [Example B135b]
Response: no (0)

Prompt: Same for CC(C)c1ccn2cncc2c1C(O)C1CCC(O[Si](C)(C)C(C)(C)C)CC1 (stereo not drawn)
Response: no (0)

Prompt: Same for OC(CC1CCCCC1)c1c(C2CC2)ccn2cncc12 (single isomer, unassigned) [Example B110b]
Response: no (0)

Prompt: Same for OC(c1c([C@H]2C[C@@H]2F)ccn2cncc12)C1CCCCC1 (single isomer, unassigned) [Example B128c]
Response: no (0)

Prompt: Same for CC(C)c1ccn2cncc2c1C(O)C1CCCCC1 (single isomer, unassigned) [Example B106a]
Response: yes (1)

Prompt: Same for OC(c1c(Cl)ccn2cncc12)C1CCCCC1 (stereo not drawn)
Response: no (0)
